biological target: Human pyruvate kinase R (PKR) (Homo sapiens, UniProt P30613); construct: Human pyruvate kinase R (PKR), residues 14-574; 6x-His (N, cleaved yes); 8x-Arg (N, cleaved yes); SUMO (N, cleaved yes); host or cells: E. coli; test: Biochemical assay for activation of pyruvate kinase R (Kinase-Glo luminescence measurement of ATP generation); settings: maximal activation level relative to the activation level achieved by the literature compound AG-348 @ 10 μM
Sequence (P30613 14-574): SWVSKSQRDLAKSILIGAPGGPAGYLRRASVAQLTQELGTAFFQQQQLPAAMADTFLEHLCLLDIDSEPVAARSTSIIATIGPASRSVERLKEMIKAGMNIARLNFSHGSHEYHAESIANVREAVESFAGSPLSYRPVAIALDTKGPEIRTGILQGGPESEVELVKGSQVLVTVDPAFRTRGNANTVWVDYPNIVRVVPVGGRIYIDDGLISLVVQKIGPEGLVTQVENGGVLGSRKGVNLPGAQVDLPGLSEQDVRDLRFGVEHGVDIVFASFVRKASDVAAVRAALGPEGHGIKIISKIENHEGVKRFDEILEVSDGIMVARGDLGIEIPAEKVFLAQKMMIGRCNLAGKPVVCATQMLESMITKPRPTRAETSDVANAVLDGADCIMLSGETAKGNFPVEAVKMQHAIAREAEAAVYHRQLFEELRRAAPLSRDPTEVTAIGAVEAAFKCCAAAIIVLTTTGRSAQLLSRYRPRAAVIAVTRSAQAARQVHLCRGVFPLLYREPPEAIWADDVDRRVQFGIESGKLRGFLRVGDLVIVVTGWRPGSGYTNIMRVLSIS
Measured quantity: Emax (%)
Answer in %, number only, no unit symbol.

(Q) Requested field: Emax. Item: `O=C(NCc1ncnn1-c1ccc(Cl)c(F)c1)NCc1nnnn1-c1ccc2c(c1)OC(F)(F)O2`
(A) 74

(Q) Looking for the measured Emax of `O=C(NCc1ncnn1-c1ccc(Cl)c(F)c1)NCc1ncnn1-c1ccc2cccnc2c1` , can you help?
(A) 47

(Q) Reported Emax for `O=C(NCc1ncnn1-c1ccc(Cl)c(F)c1)NCc1ncnn1-c1ccc(Cl)c(F)c1` : what is it?
(A) 41

(Q) Emax for `Cc1nc(CNC(=O)NCc2ncnn2-c2ccc3c(cnn3C)c2)n(-c2ccc(Cl)c(F)c2)n1` ?
(A) 75

(Q) For the compound `Cc1nc(CNC(=O)NCc2ncnn2-c2cc(C)c3cncnc3c2)n(-c2ccc(Cl)c(F)c2)n1` , what Emax is on record?
(A) 59

(Q) Could you share which Emax value was measured for `COCCc1nc(CNC(=O)NCc2nc(C)nn2-c2ccc3cccnc3c2)n(-c2ccc(Cl)c(F)c2)n1` ?
(A) 106

(Q) Which Emax value is on record for `CCN(Cc1ncnn1-c1ccc(Cl)c(F)c1)C(=O)NCc1ncnn1-c1ccc(Cl)c(F)c1` ?
(A) 48

(Q) Quick check: Emax of `Cc1nc(CNC(=O)NCc2ncnn2-c2ccc3cc(F)cnc3c2)n(-c2ccc(Cl)c(F)c2)n1` ?
(A) 74

(Q) Give the measured Emax of `Cc1nc(CNC(=O)NCc2ncnn2-c2ccc3c(c2)OCC3)n(-c2ccc(Cl)c(F)c2)n1` .
(A) 75

(Q) Reported Emax, compound `Cc1nc(CNC(=O)NCc2ncnn2-c2cnc3c(F)cccc3c2)n(-c2ccc(Cl)c(F)c2)n1` : ____
(A) 94

(Q) Entry under review: `O=C1N(Cc2nnnn2-c2ccc(Cl)c(F)c2)CCCN1Cc1nnnn1-c1ccc(Cl)c(F)c1` . Reported Emax?
(A) 80

(Q) Please report the recorded Emax for `O=C(NCc1ncnn1-c1ccc(Cl)c(F)c1)N(CCO)Cc1nnnn1-c1ccc(Cl)c(F)c1` .
(A) 89

(Q) Data request, read-out Emax, for `O=C(NCc1ncnn1-c1ccc2cccnc2c1)NCc1ncnn1-c1ccc2cccnc2c1`
(A) 64

(Q) Which measured Emax value corresponds to `Cc1nc(CN(C)C(=O)NCc2ncnn2-c2ccc3cccnc3c2)n(-c2ccc(Cl)c(F)c2)n1` ?
(A) 73

(Q) Which Emax is listed for `CCN(Cc1ncnn1-c1ccc(Cl)c(F)c1)C(=O)NCc1nc(C)nn1-c1cnc2ccccc2c1` ?
(A) 112

(Q) Field request: Emax | item: `Cc1nc(CNC(=O)NCc2ncnn2-c2ccc3scnc3c2)n(-c2ccc(Cl)c(F)c2)n1`
(A) 82

(Q) Requested read-out: Emax. Entry: `O=C(NCc1nnnn1-c1ccc(F)c(Cl)c1)NCc1nnnn1-c1ccc(F)c(Cl)c1`
(A) 64

(Q) Find the recorded Emax belonging to `O=C(NCc1ncnn1-c1ccc(Cl)c(F)c1)NCc1ncnn1-c1nc2cc(Cl)ccc2s1` and report it.
(A) 28

(Q) Give its Emax value. Item: `O=C1N(Cc2nnnn2-c2ccc(Cl)cc2)CCCN1Cc1nnnn1-c1ccc(Cl)cc1`
(A) 53

(Q) Param item = `Cc1nc(CNC(=O)NCc2nc(C)nn2-c2ccc3cccnc3c2)n(-c2ccc(Cl)c(F)c2)n1` ; retrieve measured Emax.
(A) 87

(Q) # Emax lookup, item `Cc1ccc(-n2ncnc2CN(C)C(=O)NCc2nc(C)nn2-c2ccc(Cl)c(F)c2)cn1`
(A) 53

(Q) Which Emax value is on record for `CCN(Cc1ncnn1-c1ccc(Cl)c(F)c1)C(=O)NCc1ncnn1CC1CCOCC1` ?
(A) 59

(Q) Which Emax is listed for `O=C(NCc1nnnn1-c1ccc(F)c(F)c1)NCc1nnnn1-c1ccc(F)c(F)c1` ?
(A) 106

(Q) I'd like to know its Emax. The compound in question is `Cc1ccc(-n2nnnc2CNC(=O)NCc2nnnn2-c2ccc(C)cc2F)c(F)c1`
(A) 61

(Q) GET /values?readout=Emax&item= `COc1ccc(-n2ncnc2CNC(=O)NCc2ncnn2-c2ccc(Cl)c(F)c2)cn1`
(A) 36

(Q) What Emax value was documented for this compound, `Cc1nc(CNC(=O)N(C)Cc2ncnn2-c2ccc3cccnc3c2)n(-c2ccc(Cl)c(F)c2)n1` ?
(A) 71

(Q) Quick one: Emax of `Cc1nc(CNC(=O)NCc2ncnn2-c2ccc3ncncc3c2)n(-c2ccc(Cl)c(F)c2)n1` ?
(A) 45

(Q) Find the recorded Emax belonging to `Cc1nc(CNC(=O)NCc2ncnn2-c2cccnc2)n(-c2ccc(Cl)c(F)c2)n1` and report it.
(A) 72

(Q) I am curious: what Emax value has been reported for `Cc1nc(CNC(=O)NCc2ncnn2-c2cnc3cccc(F)c3c2)n(-c2ccc(Cl)c(F)c2)n1` ?
(A) 72

(Q) Quick one: Emax for `O=C1N(Cc2ncnn2-c2ccc(Cl)c(F)c2)CCCN1Cc1ncnn1-c1ccc(Cl)c(F)c1` ?
(A) 33

(Q) Which measured Emax value corresponds to `COc1cncc(-n2ncnc2CNC(=O)NCc2nc(C)nn2-c2ccc(Cl)c(F)c2)c1` ?
(A) 110
